test: Thermodynamic solubility in PBS, FaSSIF and SGF; assay type: physicochemical; details: Phosphate Buffered Saline (PBS), aqueous buffer, thermodynamic from solid; PBS pH 7.4, 24 hour timepoint, room temperature
Structures can show the parent of a compound that is named as a salt.
We begin with a simple list: items and their reported solubility thermodynamic at 24 h.

[
  {
    "Compound": "CCOC(=O)[C@H](NC(=O)c1ccc(C(=O)N[C@@H](C(=O)OCC)C2CN3CCC2CC3)cc1)C1CN2CCC1CC2 (stereo partly shown)",
    "solubility thermodynamic at 24 h (µg/mL)": 5520
  },
  {
    "Compound": "COC(=O)[C@H](NC(=O)c1ccc(C(=O)N[C@@H](C(=O)OC)C2CN3CCC2CC3)cc1)C1CN2CCC1CC2 (stereo partly shown)",
    "solubility thermodynamic at 24 h (µg/mL)": 1220
  },
  {
    "Compound": "O=C(N[C@@H](C(=O)O)C1CN2CCC1CC2)c1ccc(C(=O)N[C@@H](C(=O)O)C2CN3CCC2CC3)cc1 (stereo partly shown) [APL-2191.2HCl, bis hydrochloride salt]",
    "solubility thermodynamic at 24 h (µg/mL)": 1690
  },
  {
    "Compound": "CC(C)OC(=O)[C@H](NC(=O)c1ccc(C(=O)N[C@@H](C(=O)OC(C)C)C2CN3CCC2CC3)cc1)C1CN2CCC1CC2 (stereo partly shown)",
    "solubility thermodynamic at 24 h (µg/mL)": 4560
  }
]
